# measured target: T1, TGFβ3 (R&D Systems) (Homo sapiens (Human), UniProt P10600 301-412, Active TGFβ3 is a disulfide-linked homodimer of this chain; one copy is given.)
# T1 construct: also called TGFB3
# T1 sequence: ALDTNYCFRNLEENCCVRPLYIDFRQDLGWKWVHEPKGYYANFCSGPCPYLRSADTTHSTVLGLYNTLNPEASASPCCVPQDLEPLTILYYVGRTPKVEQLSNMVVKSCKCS
# protocol text: SPR full titration
Checkbox rule: Kd lower than 0.5 nM = condition met; Kd not lower than 0.5 nM = condition not met.

Please review the following examples before continuing.
[
  {
    "binder": "affinity matured HcLb 264 (antibody, V domains shown, full IgG; also called canHcLb/55SW/100DY/30IM/31TK/28TI + canHcLb/237ND/242TS) VH: EVQLVQSGAEVKKPGASVKVSCKTSGYIFMKYWMNWVRQAPGAGLDWMGQIFPAWGSTNYNEMFEGRVTLTADTSTSTAYMELSSLRAGDIAVYYCARGYGNYALDAMDYWGQGTLVTVSS VL: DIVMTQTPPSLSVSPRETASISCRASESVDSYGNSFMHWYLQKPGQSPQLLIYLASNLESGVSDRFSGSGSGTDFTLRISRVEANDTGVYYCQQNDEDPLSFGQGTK",
    "classification": "condition not met"
  },
  {
    "binder": "affinity matured HcLb 269 (antibody, V domains shown, full IgG; also called canHcLb/55SW/100DY/57SM/30IM + canHcLb/237ND/242TS) VH: EVQLVQSGAEVKKPGASVKVSCKTSGYTFMTYWMNWVRQAPGAGLDWMGQIFPAWGMTNYNEMFEGRVTLTADTSTSTAYMELSSLRAGDIAVYYCARGYGNYALDAMDYWGQGTLVTVSS VL: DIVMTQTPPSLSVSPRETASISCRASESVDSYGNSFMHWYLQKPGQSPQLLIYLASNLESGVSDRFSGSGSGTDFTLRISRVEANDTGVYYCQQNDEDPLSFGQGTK",
    "classification": "condition not met"
  },
  {
    "binder": "affinity matured HcLb 188 (antibody, V domains shown, full IgG; constant regions not restated) VH: EVQLVQSGAEVKKPGASVKVSCKTSGYTFITYWMNWVRQAPGAGLDWMGQIFPAWGSTNYNEMFEGRVTLTADTSTSTAYMELSSLRAGDIAVYYCARGYGNYALDAMDYWGQGTLVTVSS VL: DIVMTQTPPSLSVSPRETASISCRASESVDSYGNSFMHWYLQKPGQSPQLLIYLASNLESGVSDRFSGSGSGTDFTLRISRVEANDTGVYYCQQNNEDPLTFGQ",
    "classification": "condition met"
  },
  {
    "binder": "affinity matured HcLb 237 (antibody, V domains shown, full IgG; also called canHcLb/55SW/100DY/57/SV + canHcLb/237ND/242TS) VH: EVQLVQSGAEVKKPGASVKVSCKTSGYTFITYWMNWVRQAPGAGLDWMGQIFPAWGVTNYNEMFEGRVTLTADTSTSTAYMELSSLRAGDIAVYYCARGYGNYALDAMDYWGQGTLVTVSS VL: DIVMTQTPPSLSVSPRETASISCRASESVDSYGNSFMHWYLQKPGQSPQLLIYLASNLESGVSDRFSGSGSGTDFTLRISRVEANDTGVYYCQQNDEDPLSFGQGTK",
    "classification": "condition met"
  }
]

Exercise: Hello, is Kd of the following binder strictly smaller than 0.5 nM? affinity matured HcLb 205 (antibody, V domains shown, full IgG; also called canHcLb/S55W/D100Y/T28/I + canHcLb/237ND/242TS) VH: EVQLVQSGAEVKKPGASVKVSCKTSGYIFITYWMNWVRQAPGAGLDWMGQIFPAWGSTNYNEMFEGRVTLTADTSTSTAYMELSSLRAGDIAVYYCARGYGNYALDAMDYWGQGTLVTVSS VL: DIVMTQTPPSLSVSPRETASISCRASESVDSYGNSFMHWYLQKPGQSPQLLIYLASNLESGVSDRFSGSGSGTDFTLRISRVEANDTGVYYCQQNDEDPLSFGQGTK
Solution: condition met
